Documented normalised response across a set of molecules
# System: CAL-148
# run.description: normalised response (% of control), CellTox Green; higher = less cell death (100 = DMSO, 0 = benzethonium chloride kill control)
# condition.set: incubation time: 72 h

[
  {
    "molecule": "O=C(CCCCCCC(=O)Nc1ccccc1)NO [Vorinostat] (1000 nM)",
    "result.units": "%",
    "normalised response": 100
  },
  {
    "molecule": "CC(C)C[C@H](NC(=O)[C@@H](COC(C)(C)C)NC(=O)[C@H](Cc1ccc(O)cc1)NC(=O)[C@H](CO)NC(=O)[C@H](Cc1c[nH]c2ccccc12)NC(=O)[C@H](Cc1cnc[nH]1)NC(=O)[C@@H]1CCC(=O)N1)C(=O)N[C@@H](CCCNC(=N)N)C(=O)N1CCC[C@H]1C(=O)NNC(N)=O [Goserelin] (10000 nM)",
    "result.units": "%",
    "normalised response": 104
  },
  {
    "molecule": "Cn1cc(C2=C(c3cn(C4CCN(Cc5ccccn5)CC4)c4ccccc34)C(=O)NC2=O)c2ccccc21 [Enzastaurin] (1000 nM)",
    "result.units": "%",
    "normalised response": 60
  },
  {
    "molecule": "O=C(CCCCCCC(=O)Nc1ccccc1)NO [Vorinostat] (10000 nM)",
    "result.units": "%",
    "normalised response": 45.5
  },
  {
    "molecule": "C=CCn1c(=O)c2cnc(Nc3ccc(N4CCN(C)CC4)cc3)nc2n1-c1cccc(C(C)(C)O)n1 [MK1775] (1000 nM)",
    "result.units": "%",
    "normalised response": -11.1
  },
  {
    "molecule": "CC1(COc2ccc3c(c2)ncn3-c2ccc3cccc(N4CCC(N)CC4)c3n2)COC1 [Crenolanib] (10000 nM)",
    "result.units": "%",
    "normalised response": -15.7
  },
  {
    "molecule": "O=C(CCCCCCC(=O)Nc1ccccc1)NO [Vorinostat] (100 nM)",
    "result.units": "%",
    "normalised response": 102
  },
  {
    "molecule": "CCNC(=O)c1noc(-c2cc(C(C)C)c(O)cc2O)c1-c1ccc(CN2CCOCC2)cc1 [NVP-AUY922] (10 nM)",
    "result.units": "%",
    "normalised response": 107
  },
  {
    "molecule": "Nc1ccn([C@@H]2O[C@H](CO)[C@@H](O)C2(F)F)c(=O)n1 [Gemcitabine] (10 nM)",
    "result.units": "%",
    "normalised response": 36.9
  },
  {
    "molecule": "CN(Cc1cnc2nc(N)nc(N)c2n1)c1ccc(C(=O)N[C@@H](CCC(=O)O)C(=O)O)cc1 [Methotrexate] (50000 nM)",
    "result.units": "%",
    "normalised response": 105
  },
  {
    "molecule": "C/C(=C\\c1csc(C)n1)[C@@H]1C[C@@H]2O[C@]2(C)CCC[C@H](C)[C@H](O)[C@@H](C)C(=O)C(C)(C)[C@@H](O)CC(=O)N1 [Ixabepilone] (1000 nM)",
    "result.units": "%",
    "normalised response": 100
  },
  {
    "molecule": "O=[N+]([O-])c1ccc2c(c1)S(=O)(=O)C=C2 [Stattic] (50000 nM)",
    "result.units": "%",
    "normalised response": 25.6
  },
  {
    "molecule": "O=C(O)CNC(=O)c1c(O)c2ccccc2n(Cc2ccccc2)c1=O [IOX-2] (50000 nM)",
    "result.units": "%",
    "normalised response": 101
  },
  {
    "molecule": "COc1cc(Nc2c(C#N)cnc3cc(OCCCN4CCN(C)CC4)c(OC)cc23)c(Cl)cc1Cl [Bosutinib] (100 nM)",
    "result.units": "%",
    "normalised response": 105
  },
  {
    "molecule": "CO[C@@H]1[C@H](N(C)C(=O)c2ccccc2)C[C@H]2O[C@]1(C)n1c3ccccc3c3c4c(c5c6ccccc6n2c5c31)C(=O)NC4 [Midostaurin] (100 nM)",
    "result.units": "%",
    "normalised response": 97.8
  },
  {
    "molecule": "CC(=O)[C@]1(O)Cc2c(O)c3c(c(O)c2[C@@H](O[C@H]2C[C@H](N)[C@H](O)[C@H](C)O2)C1)C(=O)c1ccccc1C3=O [Idarubicin] (1000 nM)",
    "result.units": "%",
    "normalised response": 28.9
  },
  {
    "molecule": "Cc1cc(Nc2nc(N[C@@H](C)c3ncc(F)cn3)ncc2Cl)[nH]n1 [AZD1480] (10 nM)",
    "result.units": "%",
    "normalised response": 66.3
  },
  {
    "molecule": "CC(=O)[C@]1(O)Cc2c(O)c3c(c(O)c2[C@@H](O[C@H]2C[C@H](N)[C@H](O)[C@H](C)O2)C1)C(=O)c1ccccc1C3=O [Idarubicin] (10 nM)",
    "result.units": "%",
    "normalised response": 93
  },
  {
    "molecule": "CCN(CC)CCCC(C)Nc1ccnc2cc(Cl)ccc12 (stereo not drawn) [Chloroquine] (1000 nM)",
    "result.units": "%",
    "normalised response": 104
  },
  {
    "molecule": "Cn1cc(C2=C(c3cn(C4CCN(Cc5ccccn5)CC4)c4ccccc34)C(=O)NC2=O)c2ccccc21 [Enzastaurin] (10000 nM)",
    "result.units": "%",
    "normalised response": 105
  },
  {
    "molecule": "CC(C)C[C@H](NC(=O)[C@@H](COC(C)(C)C)NC(=O)[C@H](Cc1ccc(O)cc1)NC(=O)[C@H](CO)NC(=O)[C@H](Cc1c[nH]c2ccccc12)NC(=O)[C@H](Cc1cnc[nH]1)NC(=O)[C@@H]1CCC(=O)N1)C(=O)N[C@@H](CCCNC(=N)N)C(=O)N1CCC[C@H]1C(=O)NNC(N)=O [Goserelin] (100 nM)",
    "result.units": "%",
    "normalised response": 87.4
  },
  {
    "molecule": "Cc1cc(Nc2nc(N[C@@H](C)c3ncc(F)cn3)ncc2Cl)[nH]n1 [AZD1480] (100 nM)",
    "result.units": "%",
    "normalised response": 99
  },
  {
    "molecule": "O=[N+]([O-])c1ccc2c(c1)S(=O)(=O)C=C2 [Stattic] (5000 nM)",
    "result.units": "%",
    "normalised response": 51.2
  },
  {
    "molecule": "CCN(CC)CCCC(C)Nc1ccnc2cc(Cl)ccc12 (stereo not drawn) [Chloroquine] (10000 nM)",
    "result.units": "%",
    "normalised response": 35.5
  },
  {
    "molecule": "CC(C)n1cnc2c(NCCc3ccc(O)cc3)nc(-c3csc4ccccc34)nc21 [StemRegenin 1] (1000 nM)",
    "result.units": "%",
    "normalised response": 85.1
  },
  {
    "molecule": "CN(Cc1cnc2nc(N)nc(N)c2n1)c1ccc(C(=O)N[C@@H](CCC(=O)O)C(=O)O)cc1 [Methotrexate] (500 nM)",
    "result.units": "%",
    "normalised response": 102
  },
  {
    "molecule": "CC[C@H](CO)Nc1nc(NCc2ccccc2)c2ncn(C(C)C)c2n1 [Seliciclib] (10000 nM)",
    "result.units": "%",
    "normalised response": 95.6
  },
  {
    "molecule": "CO[C@@H]1[C@H](N(C)C(=O)c2ccccc2)C[C@H]2O[C@]1(C)n1c3ccccc3c3c4c(c5c6ccccc6n2c5c31)C(=O)NC4 [Midostaurin] (10000 nM)",
    "result.units": "%",
    "normalised response": 66.4
  }
]
